run description: protein stability index of a GFP-peptide fusion (GPS, HEK-293T) (PSI 1-6); higher = more stable;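 further: 24-mer peptide tiles fused after GFP, lentivirally expressed, FACS-sorted into six equal bins by GFP/DsRed ratio, decoded by Illumina sequencing, PSI is the read-weighted mean bin number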
conditions used: treatment: MLN4924 1 uM, 8 h; c terminus: a fixed tail appended
quantity: protein stability index

{"seq": "NGAGVTVLRREISELRTKVQEQQK [FBXO28]", "value observed": 4.21}
{"seq": "VLRSRIRFIHLVTGCVLGSSGKVL [POMT2]", "value observed": 2.63}
{"seq": "TPMATKRSGAGVALLNDHIYVVGG [KLHL12]", "value observed": 2.71}
{"seq": "EVREPALRPAKRELRGAEPGRPAR [SPSB4]", "value observed": 4.9}

###

run description: protein stability index of a GFP-peptide fusion (GPS, HEK-293T) (PSI 1-6); higher = more stable
conditions used: treatment: DMSO; c terminus: a fixed tail appended
Each entry below lists one item and its recorded protein stability index value.
quantity: protein stability index

{"seq": "MDLMVEVSPRRIFANGHTYHINSI [PPP2R2C]", "value observed": 2.91}
{"seq": "TKVVYLASETFNYSAIDRVKSRGK [PI4K2A]", "value observed": 2.85}
{"seq": "PVTPLGLQNEVPPQPDPVFLEALS [SERTAD3]", "value observed": 4.55}

###

run description: protein stability index of a GFP-peptide fusion (GPS, HEK-293T) (PSI 1-6); higher = more stable
conditions used: treatment: DMSO; c terminus: a fixed tail appended
quantity: protein stability index

{"seq": "MKDRLAELLDLSKQYDQQFPDGDD [STX11]", "quantity": "protein stability index", "value observed": 4.77}
{"seq": "QSLPCTERKPAATARLSRRGTSLS [KISS1]", "quantity": "protein stability index", "value observed": 4.71}
{"seq": "GKPLAGIYRKREEKRNAGNAVRSA [KMT5A]", "quantity": "protein stability index", "value observed": 4.24}
{"seq": "DNDRTTPSDLDSTGNSLNEPEEPS [DLC1]", "quantity": "protein stability index", "value observed": 5.61}
{"seq": "LKHPNIVRLHDSISEEGHHYLIFD [CAMK2A]", "quantity": "protein stability index", "value observed": 2.58}
{"seq": "TYEPFCKVPVITSSKEEQKLIATS [KCTD10]", "quantity": "protein stability index", "value observed": 4.27}
{"seq": "DHPGIHEPLEPEVKYVGNMHGNEA [CPN1]", "quantity": "protein stability index", "value observed": 4.98}
{"seq": "LIYVVIDLPINVFKLLAGRWPFDH [EDNRA]", "quantity": "protein stability index", "value observed": 2.27}
{"seq": "RYVEFNLLYDRGTKFGLFTPGSRI [CPOX]", "quantity": "protein stability index", "value observed": 2.52}
{"seq": "RPVNKLAELQCEVAALREEQKVLS [RASAL3]", "quantity": "protein stability index", "value observed": 3.99}
{"seq": "EEALRKNTEEQLEIALAPYQHLEE [MTUS2]", "quantity": "protein stability index", "value observed": 5.27}
{"seq": "LLTNNSGTPKDHDSPENGADSFES [ETS2]", "quantity": "protein stability index", "value observed": 5.2}
{"seq": "ELKLGRKVPESLVRSLRGEEPVPR [LURAP1L]", "quantity": "protein stability index", "value observed": 3.85}
{"seq": "AELQAELLHSQARLAELEAQVRKL [FBF1]", "quantity": "protein stability index", "value observed": 4.29}
{"seq": "QLILFGLSNQLAVTFREENTIAFR [MCOLN1]", "quantity": "protein stability index", "value observed": 2.65}
{"seq": "LYVVGGQSNYDTKGKTAVDTVFRF [KLHL13]", "quantity": "protein stability index", "value observed": 2.5}
{"seq": "ADSMLMQGSRGLTDQAIFYAVTPL [HDAC6]", "quantity": "protein stability index", "value observed": 2.54}
{"seq": "RNRPSFDAILYYYQSGGRIRRPVN [KCNA3]", "quantity": "protein stability index", "value observed": 2.3}
{"seq": "GAIFCPPCYDVRYAPSCAKCKKKI [PDLIM7]", "quantity": "protein stability index", "value observed": 3.16}
{"seq": "FSDLNSTRGDADMYDLPKKEDALL [EMD]", "quantity": "protein stability index", "value observed": 4.77}
{"seq": "HFSSIPDAFWWAVVSMTTVGYGDM [KCNA1]", "quantity": "protein stability index", "value observed": 3.56}
{"seq": "KMFLRTREPALDGGFQMHYEKTPF [EID1]", "quantity": "protein stability index", "value observed": 2.83}
{"seq": "AQEPSAVPRAGPLTVNTEAQQLLR [FOXJ1]", "quantity": "protein stability index", "value observed": 4.62}
{"seq": "QFVSSVPRCDLVDLGEGKICFCCE [FAM189A2]", "quantity": "protein stability index", "value observed": 2.67}
{"seq": "WIVDKQHVYIGSAGLDWQSLGQMK [PLD5]", "quantity": "protein stability index", "value observed": 2.44}
{"seq": "DEELGGSSRVPVGGGPEATLSISD [ZBTB22]", "quantity": "protein stability index", "value observed": 5.37}
{"seq": "IVWNKKGKKVSNQRFEVIEFDDGS [PTPRD]", "quantity": "protein stability index", "value observed": 3.31}
{"seq": "PGGVYAGPEPPPVYTNLSSYSPAS [JUNB]", "quantity": "protein stability index", "value observed": 3.94}
{"seq": "NQKSDIWALGCVLYELASLKRAFE [NEK8]", "quantity": "protein stability index", "value observed": 2.38}
{"seq": "SGNGDFGDWSAFNQAPSGPVASSG [CLINT1]", "quantity": "protein stability index", "value observed": 4.37}
{"seq": "LIKEGGMPLLRDIIKMATARQETK [ZER1]", "quantity": "protein stability index", "value observed": 2.69}
{"seq": "ILPKELQGWVREHCPESGEEAVIL [ZSCAN9]", "quantity": "protein stability index", "value observed": 2.74}
{"seq": "APAPSQVKSKAKKTVDKHSDEYKI [CEBPB]", "quantity": "protein stability index", "value observed": 5.36}
{"seq": "RQVLCEKCKSTLSPPEASPGPPAA [PWWP2B]", "quantity": "protein stability index", "value observed": 4.88}
{"seq": "LEPAQRPPLSHIMAQPLCIRALLN [NEK8]", "quantity": "protein stability index", "value observed": 3.35}
{"seq": "PTAATTQNPVLSKLLMADQDSPLD [LCOR]", "quantity": "protein stability index", "value observed": 4.9}
{"seq": "SIYIHVYFTKSGFHPDPRQKALYR [CLPTM1]", "quantity": "protein stability index", "value observed": 2.86}

###

run description: protein stability index of a GFP-peptide fusion (GPS, HEK-293T) (PSI 1-6); higher = more stable
conditions used: treatment: MLN4924 1 uM, 8 h; c terminus: a fixed tail appended
The sequences listed here are annotated with their protein stability index.

{"seq": "KPGNNEGSGAPSPLSKSSPATTVT [SNAP91]", "protein stability index": 5.1}
{"seq": "LHRLKFLGFARRNWGNGKRPNLET [GDAP1]", "protein stability index": 2.44}
{"seq": "LGIGMDSCVIPLRHGGLSLVQTTD [SEPHS2]", "protein stability index": 2.98}
{"seq": "LAPIHKLEEALYEYQPLQIETYGP [MNAT1]", "protein stability index": 2.71}
{"seq": "CLETLPEFRDDRDLVMALSAGGHG [KCNA4]", "protein stability index": 3.51}
{"seq": "RNALENIRKEMKLLEQAGSLKGSL [CRYL1]", "protein stability index": 3.62}
{"seq": "QQVKCIITEEKVCMVCKKKIGNSA [VPS39]", "protein stability index": 3.6}
{"seq": "FVRGQEFKAHKSVLAARSPVFNAM [SPOPL]", "protein stability index": 2.83}
{"seq": "SLSFEDFLDLLSVFSDTATPDIKS [CIB1]", "protein stability index": 2.29}
{"seq": "LASSLGNLNAATDDPENKKTSSSS [CDC14A]", "protein stability index": 5.53}
{"seq": "RLLMSQADKMTAEEVDQMFQFASI [MYL5]", "protein stability index": 3.1}
{"seq": "ALAREFSCPFFETSAAYRYYIDDV [RIT1]", "protein stability index": 2.08}
{"seq": "HPEVKCVGSVALTALVTVSSEEFE [C8orf76]", "protein stability index": 3.31}
{"seq": "LQSCGDLHTFTPAGRPRAERRPRR [FAM189A2]", "protein stability index": 5.07}
{"seq": "QVHRQGERRRELVRSQTLPRTSEA [SMTNL2]", "protein stability index": 4.98}
{"seq": "DYRPMNHEAFKDELKTFRLKTRSW [CDC25B]", "protein stability index": 3.41}
{"seq": "VPTTPGPASGSTFRGRRDVSGSWE [RETREG3]", "protein stability index": 4.44}
{"seq": "TEYQKQLLAAQVQLQCSPAELQAE [FBF1]", "protein stability index": 4.3}
{"seq": "DVVCKNQDELRNRSVKVICLGSLA [FAN1]", "protein stability index": 2.98}
{"seq": "NQKSDIWALGCVLYELASLKRAFE [NEK8]", "protein stability index": 2.41}
{"seq": "QSLPCTERKPAATARLSRRGTSLS [KISS1]", "protein stability index": 4.66}
{"seq": "WIEQLNECKQLSESQVKSLCEKAK [PPP2CA]", "protein stability index": 3.87}

All figures here come from the supplement of paper PMC10567573.
